targetOfAssay: Cannabinoid receptor 1 (Homo sapiens)
Sequence (P21554 whole entry): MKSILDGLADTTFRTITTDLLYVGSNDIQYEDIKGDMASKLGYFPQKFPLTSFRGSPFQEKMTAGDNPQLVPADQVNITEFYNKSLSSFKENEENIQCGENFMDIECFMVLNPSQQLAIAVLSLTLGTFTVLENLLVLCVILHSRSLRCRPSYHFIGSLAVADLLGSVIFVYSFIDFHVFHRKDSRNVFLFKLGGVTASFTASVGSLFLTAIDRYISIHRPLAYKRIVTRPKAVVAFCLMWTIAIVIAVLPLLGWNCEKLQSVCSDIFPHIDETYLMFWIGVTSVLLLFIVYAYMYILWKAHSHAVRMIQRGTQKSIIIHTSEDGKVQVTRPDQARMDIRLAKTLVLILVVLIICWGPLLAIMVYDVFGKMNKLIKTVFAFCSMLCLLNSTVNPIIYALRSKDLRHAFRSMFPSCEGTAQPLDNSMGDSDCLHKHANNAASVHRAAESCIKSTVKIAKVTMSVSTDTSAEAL
test: Displacement of [3H]CP-55940 from human CB1 receptor expressed in HEK293 cells
Format: cell-based
pKi: −log10 of the molar value.
pKi: recorded values
experimentalReadout: pKi

>>> valuereported("CC1=CC[C@@H]2[C@@H](C1)c1c(O)cc(C(C)(C)c3cccc(F)c3)cc1OC2(C)C")
8.28
>>> valuereported("CC1=CC[C@@H]2[C@@H](C1)c1c(O)cc(C(C)(C)c3cccc(Br)c3)cc1OC2(C)C")
8.80
>>> valuereported("CC1=CC[C@@H]2[C@@H](C1)c1c(O)cc(C(C)(C)c3ccc(C#N)cc3)cc1OC2(C)C")
8.03
>>> valuereported("CCc1ccc(C(C)(C)c2cc(O)c3c(c2)OC(C)(C)[C@@H]2CC=C(C)C[C@@H]32)cc1")
8.73
>>> valuereported("CCCc1ccc(C(C)(C)c2cc(O)c3c(c2)OC(C)(C)[C@@H]2CC=C(C)C[C@@H]32)cc1")
8.75
>>> valuereported("CC1=CC[C@@H]2[C@@H](C1)c1c(O)cc(C(C)(C)c3ccc(Cl)cc3)cc1OC2(C)C")
7.73
>>> valuereported("CC1=CC[C@@H]2[C@@H](C1)c1c(O)cc(C(C)(C)c3ccc(C)cc3)cc1OC2(C)C")
8.50
>>> valuereported("CC1=CC[C@@H]2[C@@H](C1)c1c(O)cc(C(C)(C)c3ccc(F)cc3)cc1OC2(C)C")
7.12
>>> valuereported("CC1=CC[C@@H]2[C@@H](C1)c1c(O)cc(C(C)(C)c3ccc(Br)cc3)cc1OC2(C)C")
8.30
>>> valuereported("CC1=CC[C@@H]2[C@@H](C1)c1c(O)cc(C(C)(C)c3cccc(C#N)c3)cc1OC2(C)C")
8.57
>>> valuereported("CC1=CC[C@@H]2[C@@H](C1)c1c(O)cc(C(C)(C)c3cc(C)cc(C)c3)cc1OC2(C)C")
7.96
>>> valuereported("CC1=CC[C@@H]2[C@@H](C1)c1c(O)cc(C(C)(C)c3cccc(C)c3)cc1OC2(C)C")
8.60
>>> valuereported("CC1=CC[C@@H]2[C@@H](C1)c1c(O)cc(C(C)(C)c3cccc(Cl)c3)cc1OC2(C)C")
8.55
>>> valuereported("CC1=CC[C@@H]2[C@@H](C1)c1c(O)cc(C(C)(C)c3cccs3)cc1OC2(C)C")
8.97
>>> valuereported("CC1=CC[C@@H]2[C@@H](C1)c1c(O)cc(C(C)(C)c3ccccc3C)cc1OC2(C)C")
7.46
